- System: Escherichia coli
- assay.protocol: Activity of Escherichia coli XL1-Blue VIM-2 A64W mutant beta-lactamase by spectrophotometer

mol.smiles	Km (µM)
C[C@@H](O)[C@H]1C(=O)N2C(C(=O)O)=C(SCCNC=N)C[C@H]12	21
O=C(Cc1cccs1)N[C@@H]1C(=O)N2C(C(=O)O)=C(/C=C/c3ccc([N+](=O)[O-])cc3[N+](=O)[O-])CS[C@H]12	10
CO/N=C(\C(=O)N[C@@H]1C(=O)N2C(C(=O)O)=C(COC(C)=O)CS[C@H]12)c1csc(N)n1	7
C[C@@H](O)[C@H]1C(=O)N2C(C(=O)O)=C(S[C@@H]3CN[C@H](C(=O)N(C)C)C3)[C@H](C)[C@H]12	2

====

Reported Km values follow for various compounds
- System: Escherichia coli
- assay.protocol: Activity of Escherichia coli XL1-Blue IMP-1 W64A mutant beta-lactamase by spectrophotometer

mol.smiles	qualifier	Km (µM)
CC(=O)OCC1=C(C(=O)O)N2C(=O)[C@@H](NC(=O)Cc3cccs3)[C@H]2SC1	>	500
C[C@@H](O)[C@H]1C(=O)N2C(C(=O)O)=C(SCCNC=N)C[C@H]12	=	120
O=C(Cc1cccs1)N[C@@H]1C(=O)N2C(C(=O)O)=C(/C=C/c3ccc([N+](=O)[O-])cc3[N+](=O)[O-])CS[C@H]12	=	160
CO[C@@]1(NC(=O)Cc2cccs2)C(=O)N2C(C(=O)O)=C(COC(N)=O)CS[C@@H]21	=	45
CO/N=C(\C(=O)N[C@@H]1C(=O)N2C(C(=O)O)=C(COC(C)=O)CS[C@H]12)c1csc(N)n1	=	61

====

- Test system: Escherichia coli
- assay.protocol: Activity of Escherichia coli XL1-Blue VIM-2 A64W mutant beta-lactamase by spectrophotometer
Reported log10 of kcat values follow for various molecules
metric.name: log10 of kcat (log10 of the value in s⁻¹)

mol.smiles	assayed.system	meas.value
O=C(Cc1cccs1)N[C@@H]1C(=O)N2C(C(=O)O)=C(/C=C/c3ccc([N+](=O)[O-])cc3[N+](=O)[O-])CS[C@H]12	Escherichia coli	2.43
CC(C)(O/N=C(\C(=O)N[C@@H]1C(=O)N2C(C(=O)[O-])=C(C[n+]3ccccc3)CS[C@H]12)c1csc(N)n1)C(=O)O	Escherichia coli	-0.15
CC(=O)OCC1=C(C(=O)O)N2C(=O)[C@@H](NC(=O)Cc3cccs3)[C@H]2SC1	Escherichia coli	2.13
CO/N=C(\C(=O)N[C@@H]1C(=O)N2C(C(=O)O)=C(COC(C)=O)CS[C@H]12)c1csc(N)n1	Escherichia coli	1.41
C[C@@H](O)[C@H]1C(=O)N2C(C(=O)O)=C(SCCNC=N)C[C@H]12	Escherichia coli	1.78
C[C@@H](O)[C@H]1C(=O)N2C(C(=O)O)=C(S[C@@H]3CN[C@H](C(=O)N(C)C)C3)[C@H](C)[C@H]12	Escherichia coli	0.78

====

- Tested on: Escherichia coli
- assay.protocol: Ratio of Kcat to Km for Escherichia coli XL1-Blue IMP-1 W64A mutant beta-lactamase by spectrophotometer
hey, just use YES if measured kcat/Km is less than 900000 M⁻¹ s⁻¹, otherwise NO

mol.smiles	class.label
O=C(Cc1cccs1)N[C@@H]1C(=O)N2C(C(=O)O)=C(/C=C/c3ccc([N+](=O)[O-])cc3[N+](=O)[O-])CS[C@H]12	NO
CC(=O)OCC1=C(C(=O)O)N2C(=O)[C@@H](NC(=O)Cc3cccs3)[C@H]2SC1	YES
CO/N=C(\C(=O)N[C@@H]1C(=O)N2C(C(=O)O)=C(COC(C)=O)CS[C@H]12)c1csc(N)n1	NO
C[C@@H](O)[C@H]1C(=O)N2C(C(=O)O)=C(SCCNC=N)C[C@H]12	YES
